This collection of values is drawn from ChEMBL document CHEMBL5360563.

- PROCEDURE_SUMMARY: Tmax in Sprague-Dawley rat at 5 mg/kg, iv and measured upto 24 hrs by LC-MS/MS analysis
- Assay type: ADME, organism-based
- ASSAY_CONTEXT: in vivo
ASSAY_READOUT: Tmax

[[record]]
chemical_smiles = "CC1(N)CCN(c2ncc(C(=O)Nc3cccnc3)c(N)n2)CC1"
measured = "4.98 min"


----------
- PROCEDURE_SUMMARY: Clearance in Sprague-Dawley rat at 5 mg/kg, iv and measured upto 24 hrs by LC-MS/MS analysis
- Format: ADME, organism-based
- ASSAY_CONTEXT: in vivo
ASSAY_READOUT: clearance (mL/min/kg)

[[record]]
chemical_smiles = "CC1(N)CCN(c2ncc(C(=O)Nc3cccnc3)c(N)n2)CC1"
measured = 44.8


----------
- PROCEDURE_SUMMARY: Oral bioavailability in Sprague-Dawley rat at 5 mg/kg and measured upto 24 hrs by LC-MS/MS analysis
- Format: ADME, organism-based
- ASSAY_CONTEXT: in vivo
ASSAY_READOUT: bioavailability (%)

[[record]]
chemical_smiles = "CC1(N)CCN(c2ncc(C(=O)Nc3cccnc3)c(N)n2)CC1"
assay_readout = "bioavailability"
units_text = "%"
measured = 55.1


----------
- MEASURED_TARGET: Tyrosine-protein phosphatase non-receptor type 11 (Homo sapiens, UniProt Q06124)
- Sequence (Q06124 whole entry): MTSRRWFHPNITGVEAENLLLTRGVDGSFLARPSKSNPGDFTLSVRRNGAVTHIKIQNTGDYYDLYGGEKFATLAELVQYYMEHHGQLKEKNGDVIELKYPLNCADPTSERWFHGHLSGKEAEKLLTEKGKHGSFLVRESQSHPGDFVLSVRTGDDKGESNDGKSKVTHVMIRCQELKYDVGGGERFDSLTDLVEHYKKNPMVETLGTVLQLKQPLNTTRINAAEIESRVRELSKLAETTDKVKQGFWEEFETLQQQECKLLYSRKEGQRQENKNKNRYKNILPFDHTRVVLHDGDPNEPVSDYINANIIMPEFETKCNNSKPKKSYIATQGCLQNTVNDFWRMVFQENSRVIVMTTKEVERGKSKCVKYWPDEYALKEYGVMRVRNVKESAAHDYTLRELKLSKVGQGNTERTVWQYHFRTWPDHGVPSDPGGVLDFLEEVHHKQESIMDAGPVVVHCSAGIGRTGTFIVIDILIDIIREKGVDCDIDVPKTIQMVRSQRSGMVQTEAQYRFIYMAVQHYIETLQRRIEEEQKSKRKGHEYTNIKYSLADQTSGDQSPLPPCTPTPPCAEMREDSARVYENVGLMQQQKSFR
- PROCEDURE_SUMMARY: Inhibition of pIRS-1 peptide activated human wild type SHP2 FL (Met1 to Leu525 residues) using DiFMUP as substrate preincubated for 30 mins followed by substrate addition and measured after 30 mins by microplate reader method
Decide using IC50 alone. Strictly below 9 µM: MET. Equal to or above 9 µM: NOT MET.

[[record]]
chemical_smiles = "Nc1nc(N2CCCC2)ncc1C(=O)Nc1ccccc1"
group_label = "NOT MET"

[[record]]
chemical_smiles = "CC(C)N1CCN(c2ncc(C(=O)Nc3ccccc3)c(N)n2)CC1"
group_label = "NOT MET"

[[record]]
chemical_smiles = "CCOC(=O)N1CCN(c2ncc(C(=O)Nc3ccccc3)c(N)n2)CC1"
group_label = "MET"

[[record]]
chemical_smiles = "Nc1nc(N2CCN(C(=O)c3ccco3)CC2)ncc1C(=O)Nc1ccccc1"
group_label = "NOT MET"

[[record]]
chemical_smiles = "CC1(N)CCN(c2ncc(C(=O)Nc3ccc4ccccc4c3)c(N)n2)CC1"
group_label = "MET"

[[record]]
chemical_smiles = "CC1(N)CCN(c2ncc(C(=O)NCc3ccccn3)c(N)n2)CC1"
group_label = "MET"


----------
- PROCEDURE_SUMMARY: Half life in Sprague-Dawley rat at 5 mg/kg, iv and measured upto 24 hrs by LC-MS/MS analysis
- Assay type: ADME, organism-based
- ASSAY_CONTEXT: in vivo
ASSAY_READOUT: half-life (h)

[[record]]
chemical_smiles = "CC1(N)CCN(c2ncc(C(=O)Nc3cccnc3)c(N)n2)CC1"
assay_readout = "half-life"
units_text = "h"
measured = 5.31


----------
- MEASURED_TARGET: Tyrosine-protein phosphatase non-receptor type 11 (Homo sapiens)
- PROCEDURE_SUMMARY: Inhibition of pIRS-1 peptide activated human wild type SHP2 FL (Met1 to Leu525 residues) using DiFMUP as substrate preincubated for 30 mins followed by substrate addition and measured after 30 mins by microplate reader method
Decide using IC50 alone. Strictly below 10 µM: T. Equal to or above 10 µM: F.

[[record]]
compound = "CCCN1CCN(c2ncc(C(=O)Nc3ccccc3)c(N)n2)CC1"
group_label = "F"

[[record]]
compound = "CC1(N)CCN(c2ncc(C(=O)Nc3ccc([N+](=O)[O-])cc3)c(N)n2)CC1"
group_label = "T"

[[record]]
compound = "CC1(N)CCN(c2ncc(C(=O)Nc3ccc(Cl)c(Cl)c3)c(N)n2)CC1"
group_label = "T"

[[record]]
compound = "Nc1nc(N2CCN(c3ccccn3)CC2)ncc1C(=O)Nc1ccccc1"
group_label = "F"

[[record]]
compound = "Nc1nc(N2CCN(c3ccccc3)CC2)ncc1C(=O)Nc1ccccc1"
group_label = "F"

[[record]]
compound = "COc1ccc(N2CCN(c3ncc(C(=O)Nc4ccccc4)c(N)n3)CC2)cc1"
group_label = "F"

[[record]]
compound = "COc1ccc(NC(=O)c2cnc(N3CCC(C)(N)CC3)nc2N)cc1OC"
group_label = "T"

[[record]]
compound = "CC(C)(C)OC(=O)N1CCN(c2ncc(C(=O)Nc3ccccc3)c(N)n2)CC1"
group_label = "F"

[[record]]
compound = "CC1(N)CCN(c2ncc(C(=O)Nc3cccc4ccccc34)c(N)n2)CC1"
group_label = "F"

[[record]]
compound = "CC1(N)CCN(c2ncc(C(=O)Nc3ccccn3)c(N)n2)CC1"
group_label = "T"

[[record]]
compound = "CC1(N)CCN(c2ncc(C(=O)Nc3ccc(F)cc3)c(N)n2)CC1"
group_label = "T"

[[record]]
compound = "Nc1nc(N2CCSCC2)ncc1C(=O)Nc1ccccc1"
group_label = "T"

[[record]]
compound = "CC1(N)CCN(c2ncc(C(=O)Nc3cccc(-c4ccccc4)c3)c(N)n2)CC1"
group_label = "F"

[[record]]
compound = "Nc1nc(N2CCOCC2)ncc1C(=O)Nc1ccccc1"
group_label = "T"

[[record]]
compound = "CC1(N)CCN(c2ncc(C(=O)Nc3ccccc3)c(N)n2)CC1"
group_label = "T"

[[record]]
compound = "COc1ccccc1CN1CCCC(c2[nH]ccc2C(N)=O)C1 (stereo unspecified)"
group_label = "F"

[[record]]
compound = "CCCCN(C)c1ncc(C(=O)Nc2ccccc2)c(N)n1"
group_label = "F"

[[record]]
compound = "CCOC(=O)C1CCN(c2ncc(C(=O)Nc3ccccc3)c(N)n2)CC1"
group_label = "T"

[[record]]
compound = "COc1ccc2nc(C)cc(Nc3ccccc3OC)c2c1"
group_label = "F"

[[record]]
compound = "CN(Cc1ccccc1)c1ncc(C(=O)Nc2ccccc2)c(N)n1"
group_label = "F"

[[record]]
compound = "CC(C)NC(=O)CN1CCN(c2ncc(C(=O)Nc3ccccc3)c(N)n2)CC1"
group_label = "T"

[[record]]
compound = "CC(=O)N1CCN(c2ncc(C(=O)Nc3ccccc3)c(N)n2)CC1"
group_label = "T"

[[record]]
compound = "CC1(N)CCN(c2ncc(C(=O)Nc3cccnc3)c(N)n2)CC1"
group_label = "T"

[[record]]
compound = "CC1(N)CCN(c2ncc(C(=O)Nc3cc(Cl)cc(Cl)c3)c(N)n2)CC1"
group_label = "T"

[[record]]
compound = "CC1(N)CCN(c2ncc(C(=O)Nc3ccc4c(c3)Cc3ccccc3-4)c(N)n2)CC1"
group_label = "F"

[[record]]
compound = "Nc1nc(N2CCN(C3CCCCC3)CC2)ncc1C(=O)Nc1ccccc1"
group_label = "F"

[[record]]
compound = "COc1ccc(NC(=O)c2cnc(N3CCC(C)(N)CC3)nc2N)cc1"
group_label = "T"

[[record]]
compound = "COc1cccc(OC)c1NC(=O)c1cnc(N2CCC(C)(N)CC2)nc1N"
group_label = "F"

[[record]]
compound = "Nc1nc(N2CCC3(CC2)OCCO3)ncc1C(=O)Nc1ccccc1"
group_label = "F"

[[record]]
compound = "Nc1nc(N2CCc3ccccc3C2)ncc1C(=O)Nc1ccccc1"
group_label = "F"

